- assay system: GST
- test protocol: SPOT array
- condition label: median of control spots 978
Kindly supply the reported SPOT intensity values for the records listed here.
Give only the figure.

Which measured SPOT intensity value corresponds to `NHSRSLFSLPGNQQS` ?
2

Which measured SPOT intensity value corresponds to `RLPAPPPPPRRGPAP` ?
0

Which measured SPOT intensity value corresponds to `AGKRRLPLVRFKASD` ?
4

Which measured SPOT intensity value corresponds to `GQYRRTIVIPRRFFT` ?
5

Which measured SPOT intensity value corresponds to `ILARAILTIPRVLDK` ?
0

Which measured SPOT intensity value corresponds to `ALKQKKIPPPFKPHL` ?
0

Which measured SPOT intensity value corresponds to `PPPPPPPPPPPLPQS` ?
0

Which measured SPOT intensity value corresponds to `KLSRGRYGLPLSSRP` ?
0

Which measured SPOT intensity value corresponds to `VNFRRIPTGPDSPPT` ?
0

Which measured SPOT intensity value corresponds to `TEVPIPRRPPPPQAA` ?
3

Which measured SPOT intensity value corresponds to `PIVPSSPAPPLPLSG` ?
0

Which measured SPOT intensity value corresponds to `QPPLPSSAPPIPTSH` ?
0

Which measured SPOT intensity value corresponds to `QQEQNTPPLPPKPKS` ?
0

Which measured SPOT intensity value corresponds to `RPVPPPPPMRTTTEG` ?
0

Which measured SPOT intensity value corresponds to `TPTSGPPLLPPRNTM` ?
0

Which measured SPOT intensity value corresponds to `NLPKRKPPKLQGPFS` ?
1

Which measured SPOT intensity value corresponds to `AKDLIVPRRPEWNEG` ?
446

Which measured SPOT intensity value corresponds to `YLTRPLPSTPNEDSR` ?
0

Which measured SPOT intensity value corresponds to `NGRRRPKFRVQLSGN` ?
3

Which measured SPOT intensity value corresponds to `PSRRAPLQLPQLVNK` ?
1

Which measured SPOT intensity value corresponds to `WRPRIVPILPYITRL` ?
0

Which measured SPOT intensity value corresponds to `SLSRRRFSLPSMPNV` ?
0

Which measured SPOT intensity value corresponds to `HGKRRAPLLLAKLDV` ?
1

Which measured SPOT intensity value corresponds to `LSKRLPLRFPEHTSS` ?
0

Which measured SPOT intensity value corresponds to `MKRSRPSRSIPYTTP` ?
0

Which measured SPOT intensity value corresponds to `QQNRPLPQLPNRNNR` ?
0

Which measured SPOT intensity value corresponds to `YSRKKLPVVLSKMTL` ?
2

Which measured SPOT intensity value corresponds to `WTQRRGPLVVYAEDN` ?
0

Which measured SPOT intensity value corresponds to `LTRRFPFLFPFDTRM` ?
0

Which measured SPOT intensity value corresponds to `KNRKNLPTIPIRLSG` ?
0
